molecular target: N1-BR18 (IAV neuraminidase) (Influenza A virus); test: Fluorescence-based inhibition assay (substrate Neu5Acα2-3GalβMU, β-galactosidase coupled); type: biochemical, influenza A virus A/Brisbane/02/2018 (H1N1); settings: read-out: Percentage inhibition against N1-BR18 (IAV), inhibitor 8.0 μM, substrate Neu5Acα2-3GalβMU 8.0 μM; Example 2, Table 2
Examples of compounds with documented inhibition at 8 µM follow.
observation.type: inhibition at 8 µM

compound | observation.type | reading
CC(=O)N[C@@H]1C(N=[N+]=[N-])C[C@](OC2C(O)[C@H](Oc3ccc([N+](=O)[O-])cc3)OC(CO)[C@@H]2O)(C(=O)O)OC1[C@H](O)[C@H](O)CO (some centres unmarked) | inhibition at 8 µM | 0%
CC(=O)N[C@@H]1C(O)C[C@](OCC2O[C@@H](Oc3ccc([N+](=O)[O-])cc3)C(O)C(O)[C@H]2O)(C(=O)O)OC1[C@H](O)[C@H](O)CO (some centres unmarked) [Neu5Acα2-6GalβpNP, reference compound] | inhibition at 8 µM | 0%
CC(=O)N[C@H]1[C@H]([C@H](O)[C@H](O)CO)OC(O)(C(=O)O)C[C@@H]1O (some centres unmarked) [Neu5Ac (1), N-Acetylneuraminic acid, reference compound] | inhibition at 8 µM | 5.2%
CC(=O)N[C@H]1[C@H]([C@H](O)[C@H](O)CO)O[C@@](O[C@H]2[C@@H](O)[C@@H](CO)O[C@@H](Oc3ccc([N+](=O)[O-])cc3)[C@@H]2O)(C(=O)O)C[C@@H]1OC(C)=O [Neu4,5Ac2α2-3GalβpNP, Neu4,5Acα2-3GalβpNP, reference compound] | inhibition at 8 µM | 0%
CC(=O)N[C@H]1[C@H]([C@H](O)[C@H](O)CO)O[C@@](OC[C@H]2O[C@@H](Oc3ccc([N+](=O)[O-])cc3)[C@H](O)[C@@H](O)[C@H]2O)(C(=O)O)C[C@@H]1NC(=N)N | inhibition at 8 µM | 90%

* * *

Examples of compounds with documented inhibition at 8 µM follow.
molecular target: NB-Aus21 (IBV neuraminidase) (Influenza B virus, UniProt A0A1X9RX69); assay: biochemical; set-up: species or system influenza B virus B/Austria/1359417/2021; settings: inhibitor 8.0 μM; Example 3, Table 4; read-out: percentage inhibition against NB-NB-Aus21

compound | inhibition at 8 µM [%]
CC(=O)N[C@@H]1C(O)C[C@](OCC2O[C@@H](Oc3ccc([N+](=O)[O-])cc3)C(O)C(O)[C@H]2O)(C(=O)O)OC1[C@H](O)[C@H](O)CO (stereo partly shown) [Neu5Acα2-6GalβpNP, reference compound] | 0.2
CC(=O)N[C@@H]1C(O)C[C@](OC2C(O)[C@H](Oc3ccc([N+](=O)[O-])cc3)OC(CO)[C@@H]2O)(C(=O)O)OC1[C@H](O)[C@H](O)CO (stereo partly shown) [Neu5Acα2-3GalβpNP, reference compound] | 0.5
CC(=O)NC1C[C@](OCC2O[C@@H](Oc3ccc([N+](=O)[O-])cc3)C(O)C(O)[C@H]2O)(C(=O)O)OC([C@H](O)[C@H](O)CO)[C@@H]1NC(C)=O (stereo partly shown) | 0.4
CC(=O)N[C@@H]1C(N)C[C@](OC2C(O)[C@H](Oc3ccc([N+](=O)[O-])cc3)OC(CO)[C@@H]2O)(C(=O)O)OC1[C@H](O)[C@H](O)CO (stereo partly shown) | 28.5
CC(=O)NC1C[C@](OC2C(O)[C@H](Oc3ccc([N+](=O)[O-])cc3)OC(CO)[C@@H]2O)(C(=O)O)OC([C@H](O)[C@H](O)CO)[C@@H]1NC(C)=O (stereo partly shown) | 0.1
CC(=O)N[C@@H]1C(N)C[C@](OCC2O[C@@H](Oc3ccc([N+](=O)[O-])cc3)C(O)C(O)[C@H]2O)(C(=O)O)OC1[C@H](O)[C@H](O)CO (stereo partly shown) | 13.5
CC(=O)N[C@@H]1C(NC(=N)N)C[C@](OC2C(O)[C@H](Oc3ccc([N+](=O)[O-])cc3)OC(CO)[C@@H]2O)(C(=O)O)OC1[C@H](O)[C@H](O)CO (stereo partly shown) | 84.2

* * *

Examples of compounds with documented inhibition at 8 µM follow.
biological target: hNEU2 (human cytosolic sialidase) (Homo sapiens); construct: made in house; assay: Fluorescence-based inhibition assay (substrate Neu5Acα2-3GalβMU, β-galactosidase coupled); assay type: biochemical; conditions: inhibitor 8.0 μM, substrate Neu5Acα2-3GalβMU 8.0 μM; Example 2, Table 2; read-out: Percentage inhibition against hNEU2
Sequence (Q9Y3R4 whole entry): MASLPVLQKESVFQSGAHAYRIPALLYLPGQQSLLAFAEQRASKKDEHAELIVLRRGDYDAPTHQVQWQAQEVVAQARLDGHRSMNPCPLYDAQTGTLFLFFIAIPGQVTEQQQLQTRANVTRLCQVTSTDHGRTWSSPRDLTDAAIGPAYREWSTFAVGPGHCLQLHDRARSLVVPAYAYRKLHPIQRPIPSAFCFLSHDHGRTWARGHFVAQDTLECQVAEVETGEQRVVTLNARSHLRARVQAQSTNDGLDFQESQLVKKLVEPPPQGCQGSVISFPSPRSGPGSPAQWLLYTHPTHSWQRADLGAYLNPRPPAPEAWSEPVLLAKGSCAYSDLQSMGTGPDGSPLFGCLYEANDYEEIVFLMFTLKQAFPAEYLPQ

compound | inhibition at 8 µM
CC(=O)N[C@H]1[C@H]([C@H](O)[C@H](O)CO)O[C@@](OC[C@H]2O[C@@H](Oc3ccc([N+](=O)[O-])cc3)[C@H](O)[C@@H](O)[C@H]2O)(C(=O)O)C[C@@H]1NC(=N)N [4-Guanidino-Neu5Acα2-6GalβpNP] | 0%
CC(=O)N[C@@H]1C(NC(=N)N)C[C@](OC2C(O)[C@H](Oc3ccc([N+](=O)[O-])cc3)OC(CO)[C@@H]2O)(C(=O)O)OC1[C@H](O)[C@H](O)CO (some centres unmarked) [4-Guanidino-Neu5Acα2-3GalβpNP] | 0%

* * *

biological target: N2-Kan17 (IAV neuraminidase) (Influenza A virus)

molecule | IC50
CC(=O)N[C@H]1[C@H]([C@H](O)[C@H](O)CO)OC(C(=O)O)=C[C@@H]1O [Neu5Ac2en, 2,3-dehydro-N-acetylneuraminic acid, reference compound] | 8.4 µM

* * *

target: UniProt A0A1X9RX69; experiment: biochemical; design: species or system influenza B virus B/Austria/1359417/2021; conditions: inhibitor 8.0 μM, substrate Neu5Acα2-3GalβMU 8.0 μM; Example 2, Table 2
Examples of molecules with documented Percentage inhibition against NB-Aus21 (IBV) follow.
observation.type: Percentage inhibition against NB-Aus21 (IBV) (%)

molecule | target.desc | reading
CC(=O)N[C@H]1[C@H]([C@H](O)[C@H](O)CO)OC(C(=O)O)=C[C@@H]1N=[N+]=[N-] [Compound 4N3Neu5Ac2en, 4N3Neu5Ac2en] | UniProt A0A1X9RX69 | 82.8
CC(=O)N[C@H]1[C@H]([C@H](O)[C@H](O)CO)OC(O)(C(=O)O)C[C@@H]1N=[N+]=[N-] (stereo partly shown) [4N3Neu5Ac (7), 4-azido-Neu5Ac] | UniProt A0A1X9RX69 | 37.5
CC(=O)N[C@H]1[C@H]([C@H](O)[C@H](O)CO)OC(O)(C(=O)O)C[C@@H]1NC(C)=O (stereo partly shown) [4NAcNeu5Ac (3), 4NAcNeu5Ac] | UniProt A0A1X9RX69 | 27.9
CC(=O)N[C@H]1[C@H]([C@H](O)[C@H](O)CO)OC(C(=O)O)=C[C@@H]1N [4NH2Neu5Ac2en, reference compound] | UniProt A0A1X9RX69 | 98.3
CC(=O)N[C@H]1[C@H]([C@H](O)[C@H](O)CO)OC(C(=O)O)=C[C@@H]1O [Neu5Ac2en, 2,3-dehydro-N-acetylneuraminic acid, reference compound] | UniProt A0A1X9RX69 | 82.6
CC(=O)N[C@H]1[C@H]([C@H](O)[C@H](O)CO)OC(O)(C(=O)O)C[C@@H]1NC(=N)N (stereo partly shown) [4-Guanidino-Neu5Ac (9), 4-guanidino-Neu5Ac] | UniProt A0A1X9RX69 | 51.0
CC(=O)N[C@H]1[C@H]([C@H](O)[C@H](O)CO)OC(C(=O)O)=C[C@@H]1NC(C)=O [4NAcNeu5Ac2en] | UniProt A0A1X9RX69 | 21.3

* * *

biological target: N1-BR18 (IAV neuraminidase) (Influenza A virus); test: Fluorescence-based inhibition assay (substrate Neu5Acα2-3GalβMU, β-galactosidase coupled); format: biochemical, influenza A virus A/Brisbane/02/2018 (H1N1); conditions: inhibitor 8.0 μM; Example 3, Table 4

compound | percentage inhibition against N1-BR18 (%)
CC(=O)N[C@H]1[C@H]([C@H](O)[C@H](O)CO)OC(C(=O)O)=C[C@@H]1NC(C)=O [4NAcNeu5Ac2en] | 2.5
CC(=O)N[C@H]1[C@H]([C@H](O)[C@H](O)CO)OC(C(=O)O)=C[C@@H]1N=[N+]=[N-] [Compound 4N3Neu5Ac2en, 4N3Neu5Ac2en] | 39.2
CC(=O)N[C@H]1[C@H]([C@H](O)[C@H](O)CO)OC(C(=O)O)=C[C@@H]1N [4NH2Neu5Ac2en, reference compound] | 94.9
CC(=O)N[C@H]1[C@H]([C@H](O)[C@H](O)CO)OC(C(=O)O)=C[C@@H]1O [Neu5Ac2en, 2,3-dehydro-N-acetylneuraminic acid, reference compound] | 74.3
